tested on: OVCAR-8; experiment: NCI tumour cell line growth inhibition, 48 h
Calls of active or inactive are those of the source. No stated cut-off is given here; in the data, active = GI50 up to about 1.1 µM and inactive = higher.
Experimental Endpoint: GI50

1) CCn1c2c(c3ccccc31)[C@@H](c1ccc(Cl)cc1)CC1C(=O)N(c3ccccc3)C(=O)C21 (stereo partly specified): > 100 µM (inactive)
2) COc1ccc(C(=O)Cn2c(C(C)=O)nc3ccccc32)cc1: 3.8 µM (inactive)
3) COc1ccc(/N=N/C(=O)NC(CC(C)C)C(=O)NC(Cc2ccccc2)C(=O)O)cc1 (stereo unspecified): > 100 µM (inactive)
4) CCOC(=O)c1c[nH]cc1-c1cn(S(=O)(=O)c2ccccc2)cc1C: 28.7 µM (inactive)
5) COC(=O)c1ccccc1CC(Cc1ccc2c(c1)CCC2)C(=O)OC (stereo unspecified): > 100 µM (inactive)
6) O=C1c2ccccc2C(=O)N1C(=S)c1ccccc1: > 100 µM (inactive)
7) Cc1ccc(NC(=O)CC(=O)N2N=C(c3ccccc3)C(/N=N/c3ccc(S(=O)(=O)CCOS(=O)(=O)O)cc3)C2=O)cc1 (stereo unspecified): 64.3 µM (inactive)
8) COc1ccc(C=O)c([N+](=O)[O-])c1: 31.6 µM (inactive)

Below are some molecules; for each one, tell me its GI50.
1. OC1(c2ccccc2)C2CCN(CC2)C1CN1CCOCC1 (stereo unspecified)
2. COc1cc(-c2cccs2)sc1-c1cccs1
3. C=C1CC[C@@]2(C)[C@@H]([C@@H]1C)[C@H]1CC[C@@H]3[C@@]4(C)CC[C@H](O)C(C)(C)[C@@H]4CC[C@@]3(C)[C@]1(C)C[C@@H]2O
4. CC[N+](C)(CC)CCNC(=O)C(O)(c1ccccc1)c1ccccc1
5. CCOC(=O)c1cc2c3c(c(C(C)=O)c(O)c2[nH]1)N(C(C)=O)CC3
6. COc1cc2c(NCCCCCO)ncnc2c(OC)c1OC
7. C=CCC(C)(C(=O)NCCC)C(=O)c1ccccc1O (stereo unspecified)

Result string:
1. > 100 µM (inactive)
2. 97.1 µM (inactive)
3. 1.85 µM (inactive)
4. > 100 µM (inactive)
5. 38.1 µM (inactive)
6. > 100 µM (inactive)
7. > 100 µM (inactive)

Below are some molecules; for each one, tell me its GI50.
1. CSc1ncnc2c1ncn2CCC(=O)O
2. CCCCCCCCCCCCCCCC(=O)OCC1OC(n2cc(F)c(=O)[nH]c2=O)C(NC(=O)N(CCCl)N=O)C(O)C1O (stereo unspecified)

Result string:
["> 100 µM (inactive)", "3.86 µM (inactive)"]

====

Record form. Attribute: GI50. Fill in for each entry.
tested on: SK-MEL-5; test: NCI tumour cell line growth inhibition, 48 h
Calls of active or inactive are those of the source. Cut-off read from the data, not from the text of the source: active = GI50 up to about 1.1 µM and inactive = higher.

1. CC1OC2=N[C@@H]1C(=O)N[C@@H](Cc1ccccc1)C1=N[C@H](C(=O)N[C@@H](Cc3ccccc3)C3=N[C@H](C(=O)N[C@H]2Cc2ccccc2)C(C)O3)C(C)O1 (some centres not stated): 24.3 µM (inactive)
2. C[C@H](CCC(=O)O[C@@H]1CC[C@@]2(C)C(CC[C@H]3[C@@H]4CC[C@H]([C@H](C)CCc5nc6ccccc6[nH]5)[C@@]4(C)CC[C@@H]32)C1)[C@H]1CC[C@H]2[C@@H]3CCC4C[C@H](O)CC[C@]4(C)[C@H]3CC[C@]12C (some centres not stated): > 100 µM (inactive)
3. CC(C)=C1C(=O)C[C@]2(C)C/C=C(\C)CC/C=C(\C)CC[C@@H]12: 8.38 µM (inactive)
4. CCOC(=O)CNC1C(NC(C)=O)C(OC)OC2COC(c3ccccc3)OC21 (configuration not stated): > 100 µM (inactive)
5. Cc1ccc2c(c1)OC1Nc3ccccc3C1=C2O (configuration not stated): 16.4 µM (inactive)
6. O=c1[nH]c(=O)n(C2CC(O)C(CO)O2)cc1/N=N/NCCCc1ccccc1 (configuration not stated): > 100 µM (inactive)

Record Cc1cc(O)c2c(c1)C(=O)C(c1c(C)cc3c(c1O)C(=O)C1OC1C3=O)=CC2=O (configuration not stated) , field GI50: 6.34 µM (inactive)

====

Record form. Attribute: GI50. Fill in for each entry.
tested on: SF-268; test: NCI tumour cell line growth inhibition, 48 h
Active and inactive are the calls of the source. No stated cut-off is given here; in the data, active = GI50 up to about 1.1 µM and inactive = higher.

Some compounds with recorded GI50:
1. O=c1[nH]c(=O)n(C2CC(O)C(CO)O2)cc1/N=N/NCCCc1ccccc1 (stereo unspecified): > 100 µM (inactive)
2. O=C1C2=C(C3=NCCc4c[nH]c1c43)c1c(Br)cc(Br)cc1CCN2: 2.59 µM (inactive)
3. Cc1nc(-c2nc(C)c(C(=O)NN(C)C)s2)sc1C(=O)NN(C)C: > 100 µM (inactive)
4. COC(=O)Nc1nc2cc(Br)ccc2[nH]1: > 100 µM (inactive)
5. C/N=C1\CC2c3cc(OC)c(OC)cc3CCN2C2=C1C(=O)CC(C)(C)C2 (stereo unspecified): > 100 µM (inactive)

Now look at this one.
Record CCOc1ccccc1/N=C(/NC(=O)CC)SC , field GI50: > 10 µM (inactive)

====

system: ACHN; assay: NCI tumour cell line growth inhibition, 48 h
The source made the active and inactive calls. No stated cut-off is given here; in the data, active = GI50 up to about 1.1 µM and inactive = higher.
Record form. Attribute: GI50. Fill in for each entry.

Some compounds with recorded GI50:
1) CC(=O)Nc1ccc(C(=O)NN2C(=O)C(Cl)C2c2ccc(O)cc2)cc1 (stereo not given): > 100 µM (inactive)
2) Cc1ccn2c(c1)nc1nc3ccccc3nc12: 96.6 µM (inactive)
3) Clc1ccc(Cl)c(/N=N\c2cc3c4c(c2)CCN4CCC3)c1: > 10 µM (inactive)
4) c1sc(NC2=NCCO2)c2c1CCCC2: > 100 µM (inactive)
5) CC(C)(NC(=O)OCc1ccccc1)C(=O)OC(=O)C(C)(C)NC(=O)OCc1ccccc1: > 100 µM (inactive)
6) C=C1CC[C@@]2(C)[C@@H]([C@@H]1C)[C@H]1CC[C@@H]3[C@@]4(C)CC[C@H](O)C(C)(C)[C@@H]4CC[C@@]3(C)[C@]1(C)C[C@@H]2O: 2.11 µM (inactive)
7) Cc1ccc(-c2c(C#N)c(-c3ccc(C)cc3)n(NS(=O)(=O)c3ccccc3)c(=O)c2C#N)cc1: 37.5 µM (inactive)
8) O=c1ccn2n1CCCCC2: > 100 µM (inactive)
9) CC(C)=C1C(=O)C[C@]2(C)C/C=C(\C)CC/C=C(\C)CC[C@@H]12: 9.02 µM (inactive)

Now look at this one.
Record NCCS(=O)(=O)O [TAURINE] , field GI50: > 100 µM (inactive)

====

test system: SK-OV-3; assay: NCI tumour cell line growth inhibition, 48 h
Active and inactive are the calls of the source. Rule as the data show it: active = GI50 up to about 1.1 µM and inactive = higher.
Experimental Endpoint: GI50

Below are some molecules; for each one, tell me its GI50.
1. COC(=O)c1cc(-c2ccc(-c3ccc(O)cc3)cc2)cc(-c2ccc(-c3ccc(O)cc3)cc2)c1
2. COc1cccc([C@@H]2CC(=O)c3cc4c(cc3N2)OCO4)c1
3. C=C1CC2CC(O)CC(C1)C2 (stereo unspecified)

Result string:
["15.6 µM (inactive)", "> 100 µM (inactive)", "> 100 µM (inactive)"]

Below are some molecules; for each one, tell me its GI50.
1. COc1c(C)cc2c(C(C)C)c(O)c(O)c(C=O)c2c1O
2. N#CC1=C(N)N2C(=O)/C(=C/c3ccccc3)SC2C(c2nc3ccccc3[nH]2)=C1c1ccccc1 (stereo unspecified)

Result string:
1. 29.9 µM (inactive)
2. 1.68 µM (inactive)

Below are some molecules; for each one, tell me its GI50.
1. Cc1cc(Cl)ccc1NC1=NC(=O)C(CC(=O)Nc2cccc(Cl)c2)S1 (stereo unspecified)
2. O=C1CCC2CCC1C2 (stereo unspecified)
3. CC(c1ccccc1)n1c2ccccc2c2c(N)ncnc21 (stereo unspecified)
4. CCOC(=O)C1=C(C)C2C=C(c3cccs3)CC(c3ccc(Cl)cc3)=C2OC1=O (stereo unspecified)
5. CC(=O)Nc1ccc(C(=O)NN2C(=O)C(Cl)C2c2ccc(O)cc2)cc1 (stereo unspecified)
6. O=C(O)CCc1coc2ccc(O)cc12

Result string:
1. 42.5 µM (inactive)
2. > 100 µM (inactive)
3. 14.2 µM (inactive)
4. > 100 µM (inactive)
5. > 100 µM (inactive)
6. > 100 µM (inactive)

====

system: NCI-H23; assay: NCI tumour cell line growth inhibition, 48 h
The source made the active and inactive calls. No stated cut-off is given here; in the data, active = GI50 up to about 1.1 µM and inactive = higher. Where a SMILES comes first, the peptide text is derived from it. [ ]: non-standard residue; d: D form. The star is where a group is joined. ξ: configuration not given here. ξD = NC(CC(=O)O)C(=O)O; Boc = CC(C)(C)OC(=O)*; Aib = CC(C)(N)C(=O)O; OBn = c1ccc(CO*)cc1
Experimental Endpoint: GI50

Some compounds with recorded GI50:
1) C=CCCCCCCCCC(=O)NS(=O)(=O)c1ccccc1: > 100 µM (inactive)
2) COc1ccc2nc(NC(=O)C(=O)C(C(=O)c3ccccc3-c3ccccc3)C3OC(=O)c4ccccc43)sc2c1 (stereo not given): 13.8 µM (inactive)
3) CCOC(=O)NC(Nc1cccc(C(F)(F)F)c1)(C(F)(F)F)C(F)(F)F: > 100 µM (inactive)
4) O=C(/C=C/c1cccs1)c1ccc(Cl)s1: 23.1 µM (inactive)
5) CC(C)(C)OC(=O)NC(CC(=O)OCc1ccccc1)C(=O)NC(C)(C)C(N)=O (stereo not given) (Boc-[ξD](OBn)-[Aib]-NH2): > 100 µM (inactive)

Below are some compounds; for each one, tell me its GI50.
1. CC(C)(C)n1c(=O)n(-c2ccccc2)n(C(C)(C)C)c1=O
2. CN1C(=O)C(CCO)(C(C)(C)C)c2ccccc21 (stereo not given)
3. COc1c2occc2c(OC)c2c(=O)c(S(=O)(=O)NC(=O)Nc3ccc(Cl)cc3)coc12

Result string:
1. > 100 µM (inactive)
2. > 100 µM (inactive)
3. > 10 µM (inactive)

Below are some compounds; for each one, tell me its GI50.
1. O=C(CCc1ccccc1)On1c(-c2ccccc2)nc2ccccc2c1=S
2. COc1cc2c(c(OC)c1OC)-c1ccc(SC)c(=O)cc1C(NC(=O)c1ccccc1)CC2 (stereo not given)

Result string:
["4.3 µM (inactive)", "0.0107 µM (active)"]
